Catalogue of activity values
# target: Tumor necrosis factor receptor superfamily member 10B (Homo sapiens)
# assay_protocol: caspase-8 TRAIL sensitization, hit retest, confirmation, cell-based, NB7+caspase-8, with/without TRAIL, luminescence panel (AID 651596)
# experimental_conditions: NB7 neuroblastoma + caspase-8, TRAIL sensitization, luminescence viability, with TRAIL, mean of runs, at 10 µM, stronger effect = higher value

>>> measured_result("CCN1CCN(Cc2ccc(NC(=O)c3cc(NC(=O)c4cc5cccc(OC)c5o4)cc(OC)c3)cc2C(F)(F)F)CC1")
"59.2%"
>>> measured_result("Cc1ccc(NC(=O)c2cc3ccccc3o2)nc1")
"58.9%"
>>> measured_result("O=C(CSc1nnc(NC(=O)c2ccccc2)s1)NCC1CCCO1 (centres undefined)")
"60.9%"

Okay, now this compound:
Give the measured activity of Cn1c(=O)c(C(=O)Nc2ccccn2)c(O)c2ccccc21 .
60.7%

====

# target: PEG-3 (UniProt Q6IN02)
# Sequence (Q6IN02 whole entry, looked up): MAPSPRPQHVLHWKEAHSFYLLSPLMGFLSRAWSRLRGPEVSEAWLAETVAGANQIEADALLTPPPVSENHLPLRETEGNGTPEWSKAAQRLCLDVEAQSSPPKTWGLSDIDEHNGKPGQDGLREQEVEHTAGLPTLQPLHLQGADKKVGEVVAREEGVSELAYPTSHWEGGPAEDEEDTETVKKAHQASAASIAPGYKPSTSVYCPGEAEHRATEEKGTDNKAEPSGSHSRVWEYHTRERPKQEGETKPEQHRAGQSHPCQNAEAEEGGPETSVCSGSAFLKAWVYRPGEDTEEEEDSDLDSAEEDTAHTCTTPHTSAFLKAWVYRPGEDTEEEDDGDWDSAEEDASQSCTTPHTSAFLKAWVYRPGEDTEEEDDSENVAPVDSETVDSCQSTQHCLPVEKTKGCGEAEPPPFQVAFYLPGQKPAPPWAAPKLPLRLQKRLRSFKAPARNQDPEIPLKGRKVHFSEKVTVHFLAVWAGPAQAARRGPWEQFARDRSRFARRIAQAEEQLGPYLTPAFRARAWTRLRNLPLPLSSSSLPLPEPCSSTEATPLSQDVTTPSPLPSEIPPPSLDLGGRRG
# assay_protocol: Peg3 promoter luciferase inhibitors, potency, dose response, cell-based, HeLa, CREF/GAPDH counter-screen panel (AID 624167)
# experimental_conditions: CREF/GAPDH counter-screens; HeLa PEG-Prom luciferase reporter, overnight, run 2, dose range 1, at 100 µM (top of the series) unless noted
In this section, each of the compounds is paired with its reported inhibition.
Number only, in %; omit the unit.

>>> measured_result("CCN(CC)CCCCNc1ncc2cc(-c3cc(OC)cc(OC)c3)c(NC(=O)NC(C)(C)C)nc2n1")
101
>>> measured_result("CCCCNC(=O)C(C)N(CCN(C)C)C(=O)CCCCCN1C(=O)NC(c2ccc(Cl)cc2)C(C(=O)OCc2ccccc2)=C1C (configuration not stated)")
101
>>> measured_result("Oc1ccc(C[C@H]2CNCCN2CCc2cc(C(F)(F)F)cc(C(F)(F)F)c2)cc1")
102
>>> measured_result("Cc1nn(-c2ccccc2)c2c1C(c1ccc([N+](=O)[O-])cc1)N1C(=N2)C(=O)Nc2ccccc21 (configuration not stated)")
2.44
>>> measured_result("CCN(C(=O)CSc1nc2n[nH]c(C)c2c(=N)n1-c1ccc(Cl)c(C)c1)c1cccc(C)c1")
78
>>> measured_result("COCCn1c(C)cc(C(=O)CSc2nnc3ccccn23)c1C")
94.2
>>> measured_result("Cc1nc(N2CCN(S(=O)(=O)c3ccccc3C#N)CC2)c2c(-c3ccccc3)csc2n1")
5.99
>>> measured_result("Cc1ccc(C(=O)Nc2ncc([N+](=O)[O-])s2)cc1")
96.1

Request - read-out inhibition | tested on PEG-3 (UniProt Q6IN02) | compound COC(=O)Cc1[nH]n(-c2nc3ccccc3s2)c(=O)c1C(C)=Nc1ccc(Cl)cc1
94.2

What is its inhibition for PEG-3 (UniProt Q6IN02)? Entry: CCCCCCCn1c(=N)n(CC(=O)c2ccco2)c2ccccc21
100

====

Reported inhibition values follow for various compounds
# assay_protocol: inhibitors of PAF-induced NFkB signaling in CF airway cells, dose response, cell-based, uHTS hits, panel, cytotoxicity readout (AID 624344)
# experimental_conditions: CF bronchial epithelial cells, PAF-induced NFkB reporter inhibition, with PAF, run 1; at 79 µM (top of the series) unless noted
I only need the number, in %, no unit after it.

Here is how some compounds turned out for inhibition.
>>> measured_result("O=C1N(c2ccccc2C(F)(F)F)O[C@]1(c1ccccc1)C1CCCCC1")
90.7
>>> measured_result("CN(C)CCCN(C(=O)CCSc1ccccc1)c1nc2cc3c(cc2s1)OCO3")
106
>>> measured_result("COc1ccc(Cc2nnc(SCc3ccc([N+](=O)[O-])cc3)o2)cc1")
113
>>> measured_result("C=C(C)[C@@H]1CC[C@]2(C(=O)O)CC[C@]3(C)[C@H](CC[C@@H]4[C@@]5(C)CC[C@H](O)C(C)(C)[C@@H]5CC[C@]43C)[C@@H]12")
47.9
>>> measured_result("CCOC(=O)c1sc(NC(=O)c2cccc(S(=O)(=O)N3CCc4ccccc43)c2)c(C#N)c1C")
79.6

Any idea what inhibition was measured for CN(c1cccc(Cl)c1)S(=O)(=O)c1cccc(C(=O)Nc2nc3ccccc3[nH]2)c1 ?
102

Data request, read-out inhibition, for O=C(Nc1ccc(N2CCN(C(=O)c3ccccc3F)CC2)cc1)c1cncc(Br)c1
112

inhibition for O=S1(=O)CC=C(CSC(=S)NC2CCS(=O)(=O)C2)C1 (centres undefined) ?
100

For the compound shown here, Nc1ncnc(Sc2ccc(Cl)cc2)c1[N+](=O)[O-] , give the reported inhibition.
101

Param item = COc1cc(NC(=O)c2csc(-c3ccncc3)n2)cc(C(=O)Nc2cccc(C(F)(F)F)c2)c1 ; retrieve measured inhibition.
102

Tell me the measured inhibition of CC(=O)Nc1ccc(NC(=O)COC(=O)c2c3c(nc4ccccc24)CCN(Cc2ccccc2)C3)cc1 , please.
92.5

Can you look up the measured inhibition of COc1ccc(N=Cc2cc3c(cc2O)OC(N)=C(C#N)C3c2ccccc2)cc1 (centres undefined) for me?
76.8

If you can, please state the reported inhibition value of COC(=O)c1c(C)n(-c2ccc(OC)cc2)c2ccc(O)cc12 .
103
